# system: CRTH2 (Homo sapiens, UniProt Q9Y5Y4)
# Sequence (Q9Y5Y4 whole entry): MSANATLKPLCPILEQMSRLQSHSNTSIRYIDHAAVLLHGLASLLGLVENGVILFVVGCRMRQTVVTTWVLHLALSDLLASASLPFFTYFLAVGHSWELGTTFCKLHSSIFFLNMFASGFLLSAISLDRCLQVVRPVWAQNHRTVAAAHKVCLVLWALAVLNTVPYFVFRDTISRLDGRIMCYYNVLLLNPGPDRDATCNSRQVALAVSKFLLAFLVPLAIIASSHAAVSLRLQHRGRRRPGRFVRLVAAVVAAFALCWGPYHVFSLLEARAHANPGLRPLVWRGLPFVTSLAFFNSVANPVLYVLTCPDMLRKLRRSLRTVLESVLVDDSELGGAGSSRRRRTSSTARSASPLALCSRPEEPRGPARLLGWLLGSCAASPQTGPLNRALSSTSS
# protocol.summary: Cellular Dielectric Spectroscopy (CHO-CRTH2 cells)
# Assay type: cell-based
# Design: expressed in transfected cells; host or cells: CHO-CRTH2 cells
# condition.parameters: antagonist mode, fixed concentration of PGD2 (EC80)
experimental.readout: pIC50
Conceptually, pIC50 converts a concentration in mol/L into minus its log10.

> print(dat)
                                   compound  reported.measurement
1  Cc1ccc(S(=O)(=O)c2ccccc2)cc1C#Cc1cc(Cl)ccc1OCC(=O)O [Example 95]                  7.08
2  Cc1ccncc1C#Cc1cc(Cl)ccc1OCC(=O)O [Example 15]                  7.13
3  Cc1ccc(S(=O)(=O)NC(C)C)cc1C#Cc1cc(Cl)ccc1OCC(=O)O [Example 86]                  6.93
4  CCCS(=O)(=O)c1ccc(Cl)c(C#Cc2cc(Cl)ccc2OCC(=O)O)c1 [Example 101]                  7.42
5  CS(=O)(=O)c1ccc(Cl)c(C#Cc2cc(Cl)ccc2OCC(=O)O)c1 [Example 59]                  7.85
6  CC(C)S(=O)(=O)c1ccc(Cl)c(C#Cc2cc(Cl)ccc2OCC(=O)O)c1 [Example 103]                  7.36
7  CS(=O)(=O)c1ccc(F)c(C#Cc2cc(Cl)ccc2OCC(=O)O)c1 [Example 48]                  8.05
8  Cc1ccc(S(=O)(=O)N(C)C(C)C)cc1C#Cc1cc(Cl)ccc1OCC(=O)O [Example 87]                  7.08

Turning now to a further record.
// field: pIC50; key: CCCS(=O)(=O)c1ccc(F)c(C#Cc2cc(Cl)ccc2OCC(=O)O)c1 [Example 89] ; value = 7.54
